// data source = PubChem BioAssay (NCATS)

measurement description: qHTS of pediatric cancer cell lines to identify multiple opportunities for drug repurposing: Confirmatory screen for SK-N-MC cells (AID 1347111);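 note: cells exposed to compound for 48 h before the readout; nearly all actives have a fitted effect of over 70% in size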
cond: SK-N-MC cell viability; series mostly up to 45.9 µM
Procedure: Drug repurposing or repositioning has been offered as a strategy for drug development in oncology programs. […] [1] Shen, M et al. Quantitative high-throughput phenotypic screening of pediatric cancer cell lines identifies multiple opportunities for drug repurposing. […] Cells were assayed in growth media at a density of 500-1,000 cells/well. […] After a 15 min incubation at room temperature, samples were analyzed for luminescence intensity using a ViewLux High-throughput CCD imager equipped with clear filters.
Records with an inconclusive call do not appear. The source made the active and inactive calls. Calls come from the whole dose curve; as a rule, active = well fitted cell-killing curve with a large enough effect; inconclusive = small, poorly fitted or top-dose-only effect; inactive = no such curve, though single readings can be large or run the other way.
Outcome codes: true (1) for active, false (0) for inactive

>>> cat("CC(=O)OCC(=O)[C@@]1(O)[C@H](C)C[C@H]2[C@@H]3C=C(C)C4=Cc5c(cnn5-c5ccccc5)C[C@]4(C)[C@@H]3[C@@H](O)C[C@@]21C")
"true (1)"
>>> cat("CCn1cc(-c2ccnc3[nH]c(-c4cccc(CN(C)C)c4)cc23)c(-c2ccc(NC(=O)N(C)C)cc2)n1")
"true (1)"
>>> cat("CC[C@@H]1C(=O)N(C)c2cnc(Nc3ccc(C(=O)NC4CCN(C)CC4)cc3OC)nc2N1C1CCCC1")
"true (1)"
>>> cat("CN(C)Cc1c(C(=O)NCCOc2ccc(C(=O)NO)cc2)oc2ccccc12")
"true (1)"
>>> cat("Cn1c(=O)n(-c2ccc(C(C)(C)C#N)cc2)c2c3cc(-c4cnc5ccccc5c4)ccc3ncc21")
"true (1)"
>>> cat("CNC(=O)c1ccc(N2C(=S)N(c3cnc(C#N)c(C(F)(F)F)c3)C(=O)C23CCC3)cc1F")
"false (0)"
>>> cat("Cc1nc2ccc(CN(C)c3ccc(C(=O)N[C@@H](CCC(=O)O)C(=O)O)s3)cc2c(=O)[nH]1")
"true (1)"
>>> cat("Cc1ccc(C(=O)Nc2cccc(C(F)(F)F)c2)cc1-c1ccc2nc(NCCN3CCOCC3)ncc2c1")
"true (1)"
>>> cat("O=C(C=Cc1cccnc1)NCCCCC1CCN(C(=O)c2ccccc2)CC1")
"false (0)"
>>> cat("O=c1[nH]nc(Sc2ncc([N+](=O)[O-])s2)n1-c1ccc2c(c1)OCCO2")
"true (1)"
>>> cat("CN1CCN(c2cc(C(=O)Nc3ccc4c(c3)-c3c(c(C(N)=O)nn3-c3ccc(F)cc3)CC4)c(Cl)cn2)CC1")
"true (1)"
>>> cat("O=C(O)c1ccc2cc(-c3ccc(O)c(C45CC6CC(CC(C6)C4)C5)c3)ccc2c1")
"true (1)"
>>> cat("COc1cccc2c(NCc3ccccc3)nc(-n3c(N)nc4ccccc43)nc12")
"true (1)"
>>> cat("Nc1ncnc2c1c(-c1cnc3[nH]ccc3c1)nn2C1CCCC1")
"true (1)"
>>> cat("CC(C)(C)c1cc(NC(=O)Nc2ccc(-c3cn4c(n3)sc3cc(OCCN5CCOCC5)ccc34)cc2)no1")
"true (1)"
>>> cat("OCCCNc1cc(-c2ccnc(Nc3cccc(Cl)c3)n2)ccn1")
"true (1)"
>>> cat("CS(=O)(=O)N1CCN(Cc2cc3nc(-c4cccc5[nH]ncc45)nc(N4CCOCC4)c3s2)CC1")
"true (1)"
>>> cat("CCNC(=O)Nc1ccc2ncc(Nc3ccc(C)cc3)nc2n1")
"false (0)"
>>> cat("COc1cc2c(NC3CCN(C(C)C)CC3)nc(C3CCCCC3)nc2cc1OCCCN1CCCC1")
"true (1)"
>>> cat("Cc1cnc(Nc2ccc(F)cc2Cl)nc1-c1c[nH]c(C(=O)N[C@H](CO)c2cccc(Cl)c2)c1")
"false (0)"
>>> cat("CCCCc1nc2cc(C=CC(=O)NO)ccc2n1CCN(CC)CC")
"true (1)"
>>> cat("CC(C)[C@H](C(=O)Nc1ccc(C(=O)NO)cc1)c1ccccc1")
"true (1)"
>>> cat("C[C@@H](Oc1cc(-n2cnc3ccc(CN4CCN(C)CC4)cc32)sc1C(N)=O)c1ccccc1C(F)(F)F")
"true (1)"
>>> cat("CC(C)c1nn(-c2c(Cl)cccc2Cl)c2nc(Cc3ccc(OCCO)cc3)[nH]c(=O)c12")
"true (1)"
>>> cat("Cc1ccc(NC(=O)C2(c3ccc4c(c3)OC(F)(F)O4)CC2)nc1-c1cccc(C(=O)O)c1")
"false (0)"
>>> cat("CC=C1NC(=O)[C@H]2CSSCCC=C[C@H](CC(=O)N[C@H](C(C)C)C(=O)N2)OC(=O)[C@H](C(C)C)NC1=O")
"true (1)"
>>> cat("Cc1ccc(C(N)=O)cc1Nc1nccc(-c2cn(C(C)C)c3cnccc23)n1")
"true (1)"
>>> cat("O=C(Nc1cc(C(F)(F)F)cc(C(F)(F)F)c1)c1cc(Cl)ccc1O")
"true (1)"
>>> cat("C=CC(=O)Nc1cc2c(Nc3ccc(F)c(Cl)c3)ncnc2cc1C#CC(C)(C)N1CCN(C)CC1")
"true (1)"
>>> cat("CC(C)(C)c1cnc(CSc2cnc(NC(=O)C3CCNCC3)s2)o1")
"true (1)"
>>> cat("CNC(=O)c1ccccc1Nc1nc(Nc2ccc(N3CCOCC3)cc2OC)ncc1Cl")
"true (1)"
>>> cat("Cc1ccc2nc(NC(=O)CSc3nc4c(c(=O)n3-c3ccccc3)SCC4)sc2c1")
"true (1)"
>>> cat("COc1cccc(-c2ccc(NC(=O)C3=C(C(=O)O)CCC3)c(F)c2)c1")
"true (1)"
>>> cat("C=CC(=O)Nc1cccc(Oc2nc(Nc3ccc(N4CCN(C)CC4)cc3)ncc2Cl)c1")
"true (1)"
